System: H460 cells
TEST_NAME: Cell proliferation assay (resazurin, CellTiter-Blue), H460 cells
Type: cell-based
SETTINGS: comment on the data of Table 2 (H460 cells)
METRIC: Effect of the C16 modification on potency (in words)

Example cases with answers are listed next.
| COMPOUND | REPORTED |
| --- | --- |
| COc1c2c(c(O)c3c4c(c(C)cc13)C1OC3(COCC5OC(CO)C(O)C(O)C5O)OC1[C@@](OC)(O4)[C@@]31CO1)C(=O)CCC2 (stereo partly shown) | poorly tolerated |
| COc1c2c(c(O)c3c4c(c(C)cc13)C1O[C@]3(CN=[N+]=[N-])O[C@H]1[C@@](OC)(O4)[C@@]31CO1)C(=O)CCC2 (stereo partly shown) | good tolerance |
| COc1c2c(c(O)c3c4c(c(C)cc13)C1OC3(CO[C@@H]5O[C@H](COC(C)=O)[C@@H](OC(C)=O)[C@H](OC(C)=O)[C@H]5OC(C)=O)OC1[C@@](OC)(O4)[C@@]31CO1)C(=O)CCC2 (stereo partly shown) | poorly tolerated |
| COc1c2c(c(O)c3c4c(c(C)cc13)C1OC3(CSC(C)=O)OC1[C@@](OC)(O4)[C@@]31CO1)C(=O)CCC2 (stereo partly shown) | lack of activity |
| COc1c2c(c(O)c3c4c(c(C)cc13)C1OC3(CBr)OC1[C@@](OC)(O4)[C@@]31CO1)C(=O)CCC2 (stereo partly shown) | good tolerance |
| COc1c2c(c(O)c3c4c(c(C)cc13)C1O[C@]3(CN)O[C@H]1[C@@](OC)(O4)[C@@]31CO1)C(=O)CCC2 (stereo partly shown) | good tolerance |
| COc1c2c(c(O)c3c4c(c(C)cc13)C1OC3(CS)OC1[C@@](OC)(O4)[C@@]31CO1)C(=O)CCC2 (stereo partly shown) | lack of activity |

Then there is this compound:
In: Given the entry "COc1c2c(c(O)c3c4c(c(C)cc13)[C@@H]1O[C@]3(COP(=O)(O)O)O[C@@H]1[C@@](OC)(O4)[C@@]31CO1)C(=O)CCC2" , report its measured Effect of the C16 modification on potency (in words).
Out: good tolerance

###

System: H460 cells
TEST_NAME: Cell proliferation assay (resazurin, CellTiter-Blue), H460 cells
Assay type: cell-based
SETTINGS: Homo sapiens, NCI-H460; H460 cells, 72 h incubation; read-out: GI50
METRIC: GI50

Field: example entries. Status: answers known.
| MOLECULE | GI50 |
| --- | --- |
| COc1c2c(c(O)c3c4c(c(C)cc13)C1O[C@]3(CO)O[C@H]1[C@@](OC)(O4)[C@@]3(O)CBr)C(=O)CCC2 (some centres unmarked) | 8 nM |
| CCCOCC12OC3c4c(C)cc5c(OC)c6c(c(O)c5c4O[C@](OC)(C3O1)[C@@]21CO1)C(=O)CCC6 (some centres unmarked) | 22 nM |
| COc1c2c(c(O)c3c4c(c(C)cc13)C1O[C@]3(COCc5ccccc5)O[C@H]1[C@@](OC)(O4)[C@@]31CO1)C(=O)CCC2 (some centres unmarked) | > 100 nM |
| COc1c2c(c(O)c3c4c(c(C)cc13)C1O[C@]3(CN)O[C@H]1[C@@](OC)(O4)[C@@]31CO1)C(=O)CCC2 (some centres unmarked) | 10 nM |

Now look at this entry.
In: What value of measured GI50 is listed for COc1c2c(c(O)c3c4c(c(C)cc13)C1OC3(CO)OC1[C@@](O)(O4)[C@@]31CO1)C(=O)CCC2 (some centres unmarked) ?
Out: 15 nM

###

Test system: H460 cells
TEST_NAME: Cell proliferation assay (resazurin, CellTiter-Blue), H460 cells
Type: cell-based
SETTINGS: Homo sapiens, NCI-H460; H460 cells, 72 h incubation; read-out: GI50
METRIC: GI50 (nM)
Value expressed in nM; do not type the unit.

| COMPOUND | UOM | GI50 |
| --- | --- | --- |
| COc1c2c(c(O)c3c4c(c(C)cc13)C1OC3(CBr)OC1[C@@](OC)(O4)[C@@]31CO1)C(=O)CCC2 (stereo partly drawn) | nM | 20 |

--- query ---
In: Would you mind telling me what GI50 value was observed for C=CCOCC12OC3c4c(C)cc5c(OC)c6c(c(O)c5c4O[C@](OC)(C3O1)[C@@]21CO1)C(=O)CCC6 (stereo partly drawn) ?
Out: 14
